Source of measurements: patent US20180016324A1

Hi there, I'd appreciate the recorded neutralization IC50, Vero cells for every entry that follows.
# assayTarget: ZIKV envelope glycoprotein (E) of strain FLR (Colombia 2015) (Zika virus)
# protocolSummary: cell-based or functional assay
A number alone suffices; assume nM.

Consider the binder H4H25640P (antibody, V domains shown) VH: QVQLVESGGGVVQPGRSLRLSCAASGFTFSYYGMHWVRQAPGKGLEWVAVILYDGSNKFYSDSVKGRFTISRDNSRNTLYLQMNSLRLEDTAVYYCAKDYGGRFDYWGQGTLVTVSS VL: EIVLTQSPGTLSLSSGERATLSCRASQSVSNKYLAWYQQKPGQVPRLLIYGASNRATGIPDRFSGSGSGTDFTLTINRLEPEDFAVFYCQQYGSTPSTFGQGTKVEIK and give its recorded neutralization IC50, Vero cells.
0.099

Consider the binder H4H25710N (antibody, V domains shown) VH: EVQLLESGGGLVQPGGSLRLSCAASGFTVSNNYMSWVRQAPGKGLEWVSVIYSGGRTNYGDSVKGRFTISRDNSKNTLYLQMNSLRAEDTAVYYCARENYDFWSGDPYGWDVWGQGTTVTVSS VL: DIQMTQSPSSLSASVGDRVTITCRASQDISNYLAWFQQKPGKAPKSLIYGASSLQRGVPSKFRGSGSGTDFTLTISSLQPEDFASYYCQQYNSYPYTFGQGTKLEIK and give its recorded neutralization IC50, Vero cells.
1.06

Consider the binder H4H25617P (antibody, V domains shown) VH: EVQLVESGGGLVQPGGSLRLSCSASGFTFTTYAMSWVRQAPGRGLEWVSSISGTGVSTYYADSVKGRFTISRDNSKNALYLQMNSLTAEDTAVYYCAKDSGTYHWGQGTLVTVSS VL: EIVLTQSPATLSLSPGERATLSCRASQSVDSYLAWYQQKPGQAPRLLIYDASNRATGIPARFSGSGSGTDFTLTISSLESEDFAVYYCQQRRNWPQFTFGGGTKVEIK and give its recorded neutralization IC50, Vero cells.
0.552
